- TARGET OR TEST SYSTEM: T1, human SIRPβ1 domain 1 (D1) Fc fusion (human, UniProt O00241 30-148)
- T1 construct: Made in HEK293/T cells with a heterologous signal peptide; also called Human SIRPβ1 D1-Fc; Human SIRPβ1-Fc; not shown: C-terminal human IgG1 Fc
- T1 sequence (O00241 30-148 limits assumed): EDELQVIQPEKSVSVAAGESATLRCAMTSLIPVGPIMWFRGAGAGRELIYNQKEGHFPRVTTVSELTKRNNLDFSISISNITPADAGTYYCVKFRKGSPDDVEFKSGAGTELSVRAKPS
- TEST DESCRIPTION: Octet, IgG avid
READOUT: Kd

// worked examples, Kd included
1. SB-43 (antibody, V domains shown, IgG) VH: QVQLQESGPGLVKPSETLSLTCAVSGYSISSGYYWAWIRQPPGKGLEWIGSIYHSGSTYYNPSLKSRVTISVDTSKNQFSLKLSSVTAADTAVYYCARDAPGYPMLGMDVWGQGTTVSVSS VL: EIVLTQSPATLSLSPGERATLSCRASQSVSSYLAWYQQKPGQAPRLLIYDASKRATGIPARFSGSGSGTDFTLTISSLEPEDFAVYYCQQRFDFPITFGGGTKVEIK = 12.3 nM
2. SB-39 (antibody, V domains shown, IgG) VH: QVQLQESGPGLVKPSETLSLTCAVSGYSISSGYYWAWIRQPPGKGLEWIGSIYHSGSTYYNPSLKSRVTISVDTSKNQFSLKLSSVTAADTAVYYCARGGSNYGDYGRFDYWGQGTLVTVSS VL: DIQMTQSPSSLSASVGDRVTITCRASQSISSYLNWYQQKPGKAPKLLIYGASSLQSGVPSRFSGSGSGTDFTLTISSLQPEDFATYYCQQSYDFPLTFGGGTKVEIK = 21.4 nM

Okay, now this binder:
-- ask Entry SB-45 (antibody, V domains shown, IgG) VH: QVQLQESGPGLVKPSETLSLTCAVSGYSISSGYYWAWIRQPPGKGLEWIGSIYHSGSTYYNPSLKSRVTISVDTSKNQFSLKLSSVTAADTAVYYCARDLSRGYAVSGMDVWGQGTTVTVSS VL: VLTQSPGTLSLSPGERATLSCRASQSVSSSFLAWYQQKPGQAPRLLIYGASSRATGIPDRFSGSGSGTDFTLTISRLEPEDFAVYYCQQVVSVPTFGGGTKVEIK needs its Kd filled in; supply it.
-- reply 13.9 nM

# credit: patent US20250026827A1
